- TARGET: Lck (Homo sapiens, UniProt P06239)
- Construct: Kinases are expressed as either kinase domains or full length constructs; made in house
- Sequence (P06239 whole entry, species assumed, the tested form may be a part): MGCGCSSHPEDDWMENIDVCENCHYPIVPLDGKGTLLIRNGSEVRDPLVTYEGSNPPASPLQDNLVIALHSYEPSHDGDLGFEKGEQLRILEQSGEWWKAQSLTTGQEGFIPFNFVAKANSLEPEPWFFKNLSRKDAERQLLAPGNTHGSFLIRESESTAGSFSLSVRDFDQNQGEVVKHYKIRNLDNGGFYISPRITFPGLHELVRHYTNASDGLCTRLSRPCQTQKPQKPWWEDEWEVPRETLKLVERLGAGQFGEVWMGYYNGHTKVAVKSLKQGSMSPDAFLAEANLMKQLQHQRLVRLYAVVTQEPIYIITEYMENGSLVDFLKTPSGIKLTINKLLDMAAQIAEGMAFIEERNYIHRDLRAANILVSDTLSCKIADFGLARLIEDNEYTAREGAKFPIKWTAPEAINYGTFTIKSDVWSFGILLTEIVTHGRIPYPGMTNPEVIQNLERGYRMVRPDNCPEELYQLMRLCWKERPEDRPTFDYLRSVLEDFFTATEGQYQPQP
- TEST_METHOD_NOTES: Kinase inhibition assay (33P transfer), Lck
- Format: biochemical
- EXPERIMENTAL_CONTEXT: read-out: Lck-1
Below, each of the molecules is paired with its reported IC50 value.

Per the record, CN(c1cccc(Cl)c1)c1ncnc(Nc2cc(-c3ccco3)[nH]n2)n1 has IC50 of 1.09 to 6.53 µM

Sample Brc1cccc(Nc2ncnc(Nc3cccc(Br)c3)n2)c1 ; IC50 observed: 8.31 to 10.7 µM

----------
- TARGET: IGFR-1 (Homo sapiens)
- Construct: Kinases are expressed as either kinase domains or full length constructs; made in house
- Sequence (P08069 31-1367): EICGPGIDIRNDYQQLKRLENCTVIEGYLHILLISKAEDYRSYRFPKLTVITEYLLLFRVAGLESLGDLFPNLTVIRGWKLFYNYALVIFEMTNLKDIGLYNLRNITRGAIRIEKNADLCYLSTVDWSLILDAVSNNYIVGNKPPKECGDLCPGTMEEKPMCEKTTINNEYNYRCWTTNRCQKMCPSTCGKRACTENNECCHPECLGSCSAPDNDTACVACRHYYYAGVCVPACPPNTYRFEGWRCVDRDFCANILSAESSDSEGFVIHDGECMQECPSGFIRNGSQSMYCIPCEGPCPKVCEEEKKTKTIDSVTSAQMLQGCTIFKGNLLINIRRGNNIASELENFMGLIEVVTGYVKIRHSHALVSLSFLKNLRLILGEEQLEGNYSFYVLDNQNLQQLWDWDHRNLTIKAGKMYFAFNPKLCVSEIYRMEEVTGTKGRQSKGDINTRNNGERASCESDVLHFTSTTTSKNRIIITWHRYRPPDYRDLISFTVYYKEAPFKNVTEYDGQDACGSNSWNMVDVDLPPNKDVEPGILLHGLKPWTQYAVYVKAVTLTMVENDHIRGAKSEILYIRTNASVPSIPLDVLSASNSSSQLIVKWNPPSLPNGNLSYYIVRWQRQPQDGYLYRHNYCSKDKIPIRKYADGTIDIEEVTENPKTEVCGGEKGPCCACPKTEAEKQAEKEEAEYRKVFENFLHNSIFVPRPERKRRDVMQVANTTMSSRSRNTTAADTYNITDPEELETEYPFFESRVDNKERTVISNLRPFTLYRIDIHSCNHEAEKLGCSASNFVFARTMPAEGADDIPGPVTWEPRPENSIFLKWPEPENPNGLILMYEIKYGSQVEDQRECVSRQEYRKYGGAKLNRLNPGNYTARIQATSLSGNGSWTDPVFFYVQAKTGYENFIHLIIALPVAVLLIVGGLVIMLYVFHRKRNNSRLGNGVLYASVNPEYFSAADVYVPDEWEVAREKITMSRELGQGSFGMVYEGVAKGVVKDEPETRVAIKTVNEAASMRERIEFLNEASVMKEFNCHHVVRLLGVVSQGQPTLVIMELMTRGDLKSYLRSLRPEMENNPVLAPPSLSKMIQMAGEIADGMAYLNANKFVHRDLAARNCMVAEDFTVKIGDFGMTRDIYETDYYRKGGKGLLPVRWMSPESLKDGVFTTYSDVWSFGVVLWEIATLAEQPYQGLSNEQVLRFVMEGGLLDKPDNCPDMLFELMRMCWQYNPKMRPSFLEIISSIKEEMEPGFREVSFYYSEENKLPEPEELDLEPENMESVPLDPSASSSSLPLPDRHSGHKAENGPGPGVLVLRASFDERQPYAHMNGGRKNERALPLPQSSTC
- TEST_METHOD_NOTES: Kinase inhibition assay (33P transfer), IGFR-1
- Format: biochemical
- EXPERIMENTAL_CONTEXT: Table 2, class symbols A-E
pIC50: −log10 of the molar value.
Some compounds, each annotated with its measured pIC50.

{"COMPOUND": "COc1ccc(Nc2ncnc(N(C)c3ccc(C)cc3)n2)cc1OC [Compound 799]", "MEASUREMENT_KIND": "pIC50", "RESULT_VALUE": "5.17 to 5.94"}

pIC50 reported for this compound COc1ccc(CNc2ncnc(Nc3cc(-c4ccco4)n[nH]3)n2)cc1 [Compound 994] : < 4.91

----------
# IC50 per record follows
- TARGET: Zap-70 (Homo sapiens, UniProt P43403)
- Construct: Kinases are expressed as either kinase domains or full length constructs; made in house
- Sequence (P43403 1-619): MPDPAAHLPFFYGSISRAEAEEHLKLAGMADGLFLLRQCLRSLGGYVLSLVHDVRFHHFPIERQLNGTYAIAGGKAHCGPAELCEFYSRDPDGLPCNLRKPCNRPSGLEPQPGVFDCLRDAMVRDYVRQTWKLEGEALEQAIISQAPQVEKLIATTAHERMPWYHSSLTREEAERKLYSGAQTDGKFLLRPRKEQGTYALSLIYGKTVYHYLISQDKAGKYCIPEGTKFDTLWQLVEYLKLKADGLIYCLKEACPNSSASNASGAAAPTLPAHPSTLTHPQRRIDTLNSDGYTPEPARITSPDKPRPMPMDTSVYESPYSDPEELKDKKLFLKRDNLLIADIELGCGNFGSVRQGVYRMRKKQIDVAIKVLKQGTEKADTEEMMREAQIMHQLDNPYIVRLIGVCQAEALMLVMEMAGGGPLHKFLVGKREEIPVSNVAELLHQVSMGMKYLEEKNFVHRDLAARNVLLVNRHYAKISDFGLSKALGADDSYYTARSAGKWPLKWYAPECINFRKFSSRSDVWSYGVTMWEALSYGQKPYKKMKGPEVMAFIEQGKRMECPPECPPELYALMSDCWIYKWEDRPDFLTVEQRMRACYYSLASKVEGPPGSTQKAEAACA
- TEST_METHOD_NOTES: Kinase inhibition assay (33P transfer), Zap-70
- Type: biochemical
- EXPERIMENTAL_CONTEXT: Table 3; read-out: Zap-1

get_value(item= COc1cc(Nc2ncnc(Nc3cc(C)[nH]n3)n2)cc(OC)c1OC , readout=IC50) returns > 12.6 µM

Record summary for COc1cc(Nc2ncnc(Nc3ccc(C(C)C)cc3)n2)cc(OC)c1OC : reported IC50 = 6.07 to 8.85 µM

Summary for this molecule, COc1ccc2c(c1)c(CCN(C)C)cn2-c1ncnc(Nc2cc(OC)c(OC)c(OC)c2)n1 : IC50 is > 9.4 µM

----------
- TARGET: EGFR (Homo sapiens, UniProt P00533)
- Construct: Kinases are expressed as either kinase domains or full length constructs; made in house
- Sequence (P00533 25-1210, species assumed): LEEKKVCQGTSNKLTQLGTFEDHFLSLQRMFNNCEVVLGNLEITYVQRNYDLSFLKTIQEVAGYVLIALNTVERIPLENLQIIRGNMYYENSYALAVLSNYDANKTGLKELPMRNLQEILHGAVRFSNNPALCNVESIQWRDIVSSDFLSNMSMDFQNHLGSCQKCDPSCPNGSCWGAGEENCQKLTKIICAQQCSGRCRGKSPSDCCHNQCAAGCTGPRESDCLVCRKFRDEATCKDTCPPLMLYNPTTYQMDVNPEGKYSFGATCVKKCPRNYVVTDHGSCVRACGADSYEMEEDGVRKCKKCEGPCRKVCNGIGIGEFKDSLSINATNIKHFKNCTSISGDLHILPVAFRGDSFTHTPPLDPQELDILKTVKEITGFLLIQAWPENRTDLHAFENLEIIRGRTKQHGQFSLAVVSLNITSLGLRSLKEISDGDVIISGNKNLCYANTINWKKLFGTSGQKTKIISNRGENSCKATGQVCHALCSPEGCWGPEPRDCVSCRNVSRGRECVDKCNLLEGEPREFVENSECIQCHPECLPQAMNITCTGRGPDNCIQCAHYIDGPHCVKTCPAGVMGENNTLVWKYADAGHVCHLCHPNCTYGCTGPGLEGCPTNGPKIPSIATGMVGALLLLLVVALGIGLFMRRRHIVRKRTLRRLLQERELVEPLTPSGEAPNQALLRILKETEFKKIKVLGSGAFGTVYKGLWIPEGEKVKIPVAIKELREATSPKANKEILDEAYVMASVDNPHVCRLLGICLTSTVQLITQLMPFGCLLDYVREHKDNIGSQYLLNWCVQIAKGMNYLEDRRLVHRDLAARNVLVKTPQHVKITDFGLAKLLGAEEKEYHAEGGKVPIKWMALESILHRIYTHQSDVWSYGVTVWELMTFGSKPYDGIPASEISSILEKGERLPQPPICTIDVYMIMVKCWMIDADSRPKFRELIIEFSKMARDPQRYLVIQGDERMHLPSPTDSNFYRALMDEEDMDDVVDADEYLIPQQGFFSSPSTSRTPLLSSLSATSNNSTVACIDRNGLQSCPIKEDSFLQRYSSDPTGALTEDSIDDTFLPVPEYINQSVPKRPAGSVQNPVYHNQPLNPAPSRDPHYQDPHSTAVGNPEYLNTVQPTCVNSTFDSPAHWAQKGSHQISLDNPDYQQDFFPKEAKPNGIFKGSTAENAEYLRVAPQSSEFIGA
- TEST_METHOD_NOTES: Kinase inhibition assay (33P transfer), EGFR
- Format: biochemical
- EXPERIMENTAL_CONTEXT: Table 2, kinase inhibition class; read-out: EGFR-1
# IC50 listing for each entry below

{"COMPOUND": "Cc1ccc2c(c1)CCCN2c1ncnc(Nc2cc[nH]n2)n1 [Compound 766]", "RESULT_VALUE": "1300 to 7810 nM"}

// IC50 value for COc1ccc(Nc2ncnc(N3CCCc4ccc(C)cc43)n2)cc1OC [Compound 567] : < 1060 nM

compound COc1cc(Nc2ncnc(-n3c(NC(C)(C)c4ccccc4)nc4ccccc43)n2)cc(OC)c1OC [Compound 569] , IC50 observed: > 8800 nM

For reference, reported IC50 for c1ccc(CNc2nc3ccccc3n2-c2ncnc(Nc3cccc(Cc4nnn[nH]4)c3)n2)cc1 [Compound 957] stands at < 841 nM

Looking up Cc1cccc(Nc2ncnc(N(C)c3cccc(Cl)c3)n2)c1 [Compound 709] , I see its IC50 listed as < 1230 nM

----------
Quick reference for IC50 among some compounds
- TARGET: Itk (Homo sapiens, UniProt Q08881)
- Construct: Kinases are expressed as either kinase domains or full length constructs; made in house
- Sequence (Q08881 whole entry, species assumed, the tested form may be a part): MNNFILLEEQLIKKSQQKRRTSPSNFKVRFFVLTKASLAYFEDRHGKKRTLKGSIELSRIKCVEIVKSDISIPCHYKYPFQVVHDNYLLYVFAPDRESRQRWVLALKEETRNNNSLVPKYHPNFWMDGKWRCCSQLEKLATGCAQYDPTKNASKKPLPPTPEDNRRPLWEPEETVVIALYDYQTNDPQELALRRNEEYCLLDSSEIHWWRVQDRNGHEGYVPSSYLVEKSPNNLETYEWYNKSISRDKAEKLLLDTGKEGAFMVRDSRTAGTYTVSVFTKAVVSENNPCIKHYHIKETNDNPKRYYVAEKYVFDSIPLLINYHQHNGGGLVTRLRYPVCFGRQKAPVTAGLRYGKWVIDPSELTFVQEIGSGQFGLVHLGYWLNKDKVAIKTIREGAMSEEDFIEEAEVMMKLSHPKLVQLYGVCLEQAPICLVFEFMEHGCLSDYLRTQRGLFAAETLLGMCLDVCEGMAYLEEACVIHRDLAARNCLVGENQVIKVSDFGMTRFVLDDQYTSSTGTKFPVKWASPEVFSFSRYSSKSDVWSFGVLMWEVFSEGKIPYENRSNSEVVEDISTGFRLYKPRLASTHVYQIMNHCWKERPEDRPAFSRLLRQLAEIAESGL
- TEST_METHOD_NOTES: Kinase inhibition assay (33P transfer), Itk
- Assay type: biochemical
- EXPERIMENTAL_CONTEXT: read-out: Itk-1
- Procedure: The inhibitor compounds described herein are screened in the following manner. […] Kinases are expressed as either kinase domains or full length constructs fused to glutathione S-transferase (GST) or polyHistidine tagged fusion proteins in either E. colior Baculovirus-High Five expression systems. […] Kinase activity and inhibition are measured essentially by established protocols (Braunwalder et al., 1996). […]

Check out these entries, answers already filled in.
{"COMPOUND": "COc1ccc(Nc2ncnc(NCCCN3CCCCC3C)n2)cc1OC (stereo not drawn) [Compound 782]", "IC50": "> 11.6 µM"}
{"COMPOUND": "O=c1[nH]c2ccccc2n1-c1ncnc(Nc2cc(C(F)(F)F)cc(C(F)(F)F)c2)n1 [Compound 506]", "IC50": "> 10.2 µM"}

IC50 in this record for COc1cccc(Nc2ncnc(Nc3cc(-c4ccccc4)n[nH]3)n2)c1 [Compound 1011] : 1.11 to 6.68 µM

Input COc1cc(Nc2ncnc(-n3nc(-c4ccccc4)cc3N)n2)cc(OC)c1OC [Compound 520] . Output IC50: 0.954 to 5.72 µM

Given item COC(=O)c1ccc(-c2cc(Nc3ncnc(Nc4ccc(CO)cc4)n3)[nH]n2)cc1 [Compound 989] , the value recorded as its IC50 is 8.38 to 10.8 µM

get_value(item= COc1cc(Nc2ncnc(-n3c(OCc4ccccn4)nc4ccccc43)n2)cc(OC)c1OC [Compound 690] , readout=IC50) returns > 9.27 µM

----------
- TARGET: EPHB4 (Homo sapiens, UniProt P54760)
- Sequence (P54760 16-987): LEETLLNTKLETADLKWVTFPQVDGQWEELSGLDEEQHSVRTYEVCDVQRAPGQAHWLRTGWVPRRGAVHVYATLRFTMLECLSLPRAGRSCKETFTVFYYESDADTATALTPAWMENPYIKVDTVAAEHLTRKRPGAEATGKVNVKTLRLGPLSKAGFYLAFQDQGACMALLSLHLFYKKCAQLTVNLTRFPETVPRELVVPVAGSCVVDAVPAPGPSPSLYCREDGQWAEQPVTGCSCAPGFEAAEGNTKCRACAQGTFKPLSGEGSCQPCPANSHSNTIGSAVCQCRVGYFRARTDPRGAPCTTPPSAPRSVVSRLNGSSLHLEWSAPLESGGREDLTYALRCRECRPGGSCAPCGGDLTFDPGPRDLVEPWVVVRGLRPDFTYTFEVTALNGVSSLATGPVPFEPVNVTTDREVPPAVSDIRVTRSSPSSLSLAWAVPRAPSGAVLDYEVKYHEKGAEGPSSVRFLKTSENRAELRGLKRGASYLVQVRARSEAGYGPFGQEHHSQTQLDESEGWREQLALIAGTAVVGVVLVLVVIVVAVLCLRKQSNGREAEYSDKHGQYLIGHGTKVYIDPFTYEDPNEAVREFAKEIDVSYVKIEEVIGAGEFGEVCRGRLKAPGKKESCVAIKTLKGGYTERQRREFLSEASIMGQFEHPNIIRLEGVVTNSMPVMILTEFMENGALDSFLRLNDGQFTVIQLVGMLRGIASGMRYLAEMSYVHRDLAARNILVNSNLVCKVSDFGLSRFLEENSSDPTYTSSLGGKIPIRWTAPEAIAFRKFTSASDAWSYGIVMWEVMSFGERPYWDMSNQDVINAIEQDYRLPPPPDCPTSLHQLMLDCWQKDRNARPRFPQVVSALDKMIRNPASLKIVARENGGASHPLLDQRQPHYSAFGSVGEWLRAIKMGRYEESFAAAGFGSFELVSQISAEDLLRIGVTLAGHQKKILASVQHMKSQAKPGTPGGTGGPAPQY
pIC50: −log10 of the molar value.
This section presents molecules with their documented pIC50 values.

Some solved cases for reference:
{"MOLECULE": "COc1cc(Nc2ncnc(-n3c(Nc4cccc(C(N)=O)c4)nc4ccccc43)n2)cc(OC)c1OC [Compound 377]", "MEASUREMENT_KIND": "pIC50", "RESULT_VALUE": "5.33 to 6.11"}
{"MOLECULE": "COc1cc(Nc2ncnc(-c3ccc(C)cc3)n2)cc(OC)c1OC [Compound 221]", "MEASUREMENT_KIND": "pIC50", "RESULT_VALUE": "5.17 to 5.94"}
{"MOLECULE": "COc1cc(Nc2ncnc(-n3c(Nc4ccc(C)cc4)nc4ccccc43)n2)cc(OC)c1OC [Compound 385]", "MEASUREMENT_KIND": "pIC50", "RESULT_VALUE": "< 5.03"}

The molecule listed as COc1ccc(Nc2ncnc(Nc3ccc(Oc4ccccc4)cc3)n2)cc1OC [Compound 929] has a reported pIC50 of < 4.97

The reported pIC50 of the molecule COc1cc(Nc2ncnc(Nc3nc4ccccc4n3C)n2)cc(OC)c1OC [Compound 938] was < 4.96
